- System: Hyperlipidemic Hamster
- experimentalProtocol: In Vivo Assay of Hypolipidemic Agents Using the Hyperlipidemic Hamster
- experimentalContext: Mesocricetus auratus, po, 168 h, 50 mg/kg once daily oral, 7 days; percent change versus control, negative = lowering; read-out: % Reduction (in vivo) Cholest. Esters
Decision: change in vivo at 50 mg/kg beneath -70% gives TRUE; change in vivo at 50 mg/kg meeting or exceeding -70% gives FALSE.

As a guide, the following entries are already answered.
COc1ccc(N2C(=O)[C@H](CCCc3ccccc3)[C@H]2c2ccoc2)cc1 (relative stereo); FALSE
COc1ccc(NC[C@H]2[C@@H](CCCc3ccccc3)C(=O)N2c2ccc(OC)cc2)cc1 (relative stereo) [Example 19D]; FALSE
CC[C@]1(CCCc2ccccc2)C(=O)N(c2c(OC)cc(OC)cc2OC)[C@H]1c1ccccc1 (relative stereo); FALSE
COc1ccc(C2N(c3ccc(OC)cc3)C(=O)C2(c2ccccc2)c2ccccc2)cc1 (stereo not shown); FALSE
COc1ccc([C@@H]2[C@@H](/C=C\Cc3ccccc3)C(=O)N2c2ccc(OC)cc2)cc1 (relative stereo); TRUE

Would you kindly look at the next entry?
Take the compound COc1ccc(N2C(=O)[C@@H](CCCc3ccccc3)[C@H]2c2ccc(O)cc2)cc1 (relative stereo) and say whether its change in vivo at 50 mg/kg is less than -70%. TRUE

----------
- Tested on: Hyperlipidemic Hamster
- experimentalProtocol: In Vivo Assay of Hypolipidemic Agents Using the Hyperlipidemic Hamster
- experimentalContext: Mesocricetus auratus, po, 168 h, 50 mg/kg once daily oral, 7 days; percent change versus control, negative = lowering; read-out: % Reduction (in vivo) Cholest. Esters
endpoint: change in vivo at 50 mg/kg (%)
Give a bare numeral; the unit % is implied.

Worked examples follow.
CCCOc1ccc([C@H]2[C@@H](CCCc3ccccc3)C(=O)N2c2ccc(OC)cc2)cc1 (relative stereo); -91
COc1ccc(N2C(=O)[C@H](CCCc3ccccc3)[C@@H]2c2ccc([N+](=O)[O-])cc2)cc1 (relative stereo); -51
CCOc1ccc(N2C(=O)[C@H](CCCc3ccccc3)[C@H]2c2ccc(OC)cc2)cc1 (relative stereo); -96

Now examine the next entry.
What value of change in vivo at 50 mg/kg has been reported for the following molecule? COc1ccc([C@@H]2[C@@H](CCCc3ccccc3)C(=O)N2c2ccc(Cl)cc2)cc1 (relative stereo) -93

----------
- System: Hyperlipidemic Hamster
- experimentalProtocol: In Vivo Assay of Hypolipidemic Agents Using the Hyperlipidemic Hamster
- experimentalContext: Mesocricetus auratus, po, 168 h, 50 mg/kg once daily oral, 7 days; percent change versus control, negative = lowering; read-out: % Reduction (in vivo) Cholest. Esters
Some compounds, each annotated with its measured change in vivo at 50 mg/kg.
# include the unit after the value

COc1ccc(N2C(=O)[C@@H](CCCc3ccccc3)[C@@H]2c2cc3ccccc3o2)cc1 (relative stereo); 0%
CCOC(=O)c1ccc([C@@H]2[C@@H](CCCc3ccccc3)C(=O)N2c2ccc(OC)cc2)cc1 (relative stereo) [Example 24A]; -76%
CCOc1ccc([C@H]2[C@@H](CCCc3ccccc3)C(=O)N2c2ccc(OC)cc2)cc1 (relative stereo); -93%

What value of measured change in vivo at 50 mg/kg is listed for CCCCCCCCCC[C@]1(CC)C(=O)N(c2ccc(OC)cc2)[C@H]1c1ccccc1 (stereo in doubt) ? 0%
